Each entry below carries its recorded IC50.
Biological target: CYP3A4 (Homo sapiens)
Sequence (P08684 whole entry): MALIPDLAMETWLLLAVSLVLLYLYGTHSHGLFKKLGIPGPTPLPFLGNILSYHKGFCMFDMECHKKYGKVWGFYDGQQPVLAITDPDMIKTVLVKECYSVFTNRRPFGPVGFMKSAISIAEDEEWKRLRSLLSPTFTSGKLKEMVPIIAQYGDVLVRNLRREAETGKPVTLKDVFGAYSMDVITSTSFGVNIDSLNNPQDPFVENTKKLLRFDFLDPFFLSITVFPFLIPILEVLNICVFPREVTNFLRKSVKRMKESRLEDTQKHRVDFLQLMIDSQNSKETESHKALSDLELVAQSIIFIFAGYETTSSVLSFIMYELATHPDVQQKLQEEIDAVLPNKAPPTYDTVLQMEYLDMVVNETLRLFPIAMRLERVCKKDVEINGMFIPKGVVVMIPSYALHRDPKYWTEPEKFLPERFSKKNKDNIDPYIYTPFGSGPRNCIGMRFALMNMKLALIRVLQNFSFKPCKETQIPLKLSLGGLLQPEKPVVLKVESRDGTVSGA
Assay: CYP3A4 inhibition
Format: in vitro ADME
Conditions: Table 7

1) O=C(O)c1cc(-c2ccc([C@@H]3C[C@@H]4C[C@H]3NC4=O)cc2)c2ccc(-c3ccc(C(F)(F)F)cc3)cc2c1; > 30 µM

Continue with the compound presented below.
Request: // IC50 lookup, key: O=C(O)c1cc(-c2ccc([C@H]3C[C@H]4C[C@@H]3CN4)cc2)c2ccc(-c3ccc(C(F)(F)F)cc3)cc2c1
Result: > 30 µM

---

Test: HPLC-based lipophilicity (Log D7.4)
Conditions: pH 7.4
// label = label 1 if chromatographic logD is not less than 2, otherwise label 0

See these solved cases before continuing.
1. O=C(O)c1cc(-c2ccc([C@H]3C[C@H]4C[C@@H]3CN4)cc2)c2ccc(-c3ccc(C(F)(F)F)cc3)cc2c1 [Compound 114]; label 0
2. O=C(O)c1cc(-c2ccc(C3CC4CCC3CN4)cc2)c2ccc(-c3ccc(C(F)(F)F)cc3)cc2c1 (racemic); label 0

Request: Threshold query (chromatographic logD >= 2) on CN1C[C@H]2CC[C@@H](C1)[C@]2(O)c1ccc(-c2cc(C(=O)O)cc3cc(-c4ccc(C(F)(F)F)cc4)ccc23)cc1
Result: label 0

Request: Threshold query (chromatographic logD >= 2) on O=C(O)c1cc(-c2ccc([C@H]3C[C@@H]4CN[C@H]3C4)cc2)c2ccc(-c3ccc(C(F)(F)F)cc3)cc2c1
Result: label 1

Request: Please check the record O=C(O)c1cc(-c2ccc(C3CCNC3)cc2)c2ccc(-c3ccc(C(F)(F)F)cc3)cc2c1 (racemic) and state if its chromatographic logD is at or above 2.
Result: label 0

---

Parameter pIC50: see the listing below.
Molecular target: CYP2D6 (Homo sapiens)
Sequence (P10635 whole entry): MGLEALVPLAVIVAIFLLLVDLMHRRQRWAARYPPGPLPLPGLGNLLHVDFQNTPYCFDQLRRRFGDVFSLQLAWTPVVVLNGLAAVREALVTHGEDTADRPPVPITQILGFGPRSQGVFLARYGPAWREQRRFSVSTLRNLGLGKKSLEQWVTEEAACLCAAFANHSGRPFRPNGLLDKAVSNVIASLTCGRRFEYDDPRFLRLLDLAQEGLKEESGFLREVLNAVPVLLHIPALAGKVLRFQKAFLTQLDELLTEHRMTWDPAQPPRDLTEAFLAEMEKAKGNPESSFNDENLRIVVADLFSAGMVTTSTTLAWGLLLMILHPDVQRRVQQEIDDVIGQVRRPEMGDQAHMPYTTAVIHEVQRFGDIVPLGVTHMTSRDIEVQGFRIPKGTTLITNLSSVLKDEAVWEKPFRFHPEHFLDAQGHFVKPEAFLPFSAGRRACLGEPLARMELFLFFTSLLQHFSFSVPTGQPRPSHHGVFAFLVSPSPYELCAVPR
Assay: CYP2D6 inhibition
Assay type: in vitro ADME
Conditions: Table 7
pIC50: −log10 of the molar value.

1. O=C(O)c1cc(-c2ccc([C@H]3C[C@H]4C[C@@H]3CN4)cc2)c2ccc(-c3ccc(C(F)(F)F)cc3)cc2c1; < 4.52

Here is another compound to look at.
Request: // returns reported pIC50 for input O=C(O)c1cc(-c2ccc([C@@H]3C[C@@H]4C[C@H]3NC4=O)cc2)c2ccc(-c3ccc(C(F)(F)F)cc3)cc2c1
Result: < 4.52

---

Target: UniProt:P05177
Sequence (P05177 1-516): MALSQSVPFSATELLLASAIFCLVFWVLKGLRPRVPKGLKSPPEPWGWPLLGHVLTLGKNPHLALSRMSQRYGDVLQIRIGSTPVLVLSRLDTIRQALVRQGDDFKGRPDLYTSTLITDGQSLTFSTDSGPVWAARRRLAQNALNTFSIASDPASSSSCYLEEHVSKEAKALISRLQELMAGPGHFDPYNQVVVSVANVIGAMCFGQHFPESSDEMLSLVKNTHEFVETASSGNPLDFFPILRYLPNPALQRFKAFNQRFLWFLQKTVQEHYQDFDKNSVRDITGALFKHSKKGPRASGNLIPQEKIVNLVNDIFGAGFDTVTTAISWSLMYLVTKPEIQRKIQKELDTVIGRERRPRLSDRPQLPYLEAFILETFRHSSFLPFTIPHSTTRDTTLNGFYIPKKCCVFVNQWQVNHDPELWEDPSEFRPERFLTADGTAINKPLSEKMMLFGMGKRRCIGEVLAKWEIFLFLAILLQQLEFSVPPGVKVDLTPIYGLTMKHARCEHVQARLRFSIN
Test: CYP1A2 inhibition
Assay type: in vitro ADME
Settings: Table 4
pIC50: −log10 of the molar value.
QUANTITY_KIND: pIC50

Request: Recorded pIC50 of O=C(O)c1cc(-c2ccc(-c3cc(CO)on3)cc2)c2ccc(-c3ccc(C(F)(F)F)cc3)cc2c1 , please.
Result: < 4.52
